Data provenance: ChEMBL document CHEMBL3396971

system-name: Vascular endothelial growth factor receptor 2 (Homo sapiens)
Sequence (P35968 whole entry): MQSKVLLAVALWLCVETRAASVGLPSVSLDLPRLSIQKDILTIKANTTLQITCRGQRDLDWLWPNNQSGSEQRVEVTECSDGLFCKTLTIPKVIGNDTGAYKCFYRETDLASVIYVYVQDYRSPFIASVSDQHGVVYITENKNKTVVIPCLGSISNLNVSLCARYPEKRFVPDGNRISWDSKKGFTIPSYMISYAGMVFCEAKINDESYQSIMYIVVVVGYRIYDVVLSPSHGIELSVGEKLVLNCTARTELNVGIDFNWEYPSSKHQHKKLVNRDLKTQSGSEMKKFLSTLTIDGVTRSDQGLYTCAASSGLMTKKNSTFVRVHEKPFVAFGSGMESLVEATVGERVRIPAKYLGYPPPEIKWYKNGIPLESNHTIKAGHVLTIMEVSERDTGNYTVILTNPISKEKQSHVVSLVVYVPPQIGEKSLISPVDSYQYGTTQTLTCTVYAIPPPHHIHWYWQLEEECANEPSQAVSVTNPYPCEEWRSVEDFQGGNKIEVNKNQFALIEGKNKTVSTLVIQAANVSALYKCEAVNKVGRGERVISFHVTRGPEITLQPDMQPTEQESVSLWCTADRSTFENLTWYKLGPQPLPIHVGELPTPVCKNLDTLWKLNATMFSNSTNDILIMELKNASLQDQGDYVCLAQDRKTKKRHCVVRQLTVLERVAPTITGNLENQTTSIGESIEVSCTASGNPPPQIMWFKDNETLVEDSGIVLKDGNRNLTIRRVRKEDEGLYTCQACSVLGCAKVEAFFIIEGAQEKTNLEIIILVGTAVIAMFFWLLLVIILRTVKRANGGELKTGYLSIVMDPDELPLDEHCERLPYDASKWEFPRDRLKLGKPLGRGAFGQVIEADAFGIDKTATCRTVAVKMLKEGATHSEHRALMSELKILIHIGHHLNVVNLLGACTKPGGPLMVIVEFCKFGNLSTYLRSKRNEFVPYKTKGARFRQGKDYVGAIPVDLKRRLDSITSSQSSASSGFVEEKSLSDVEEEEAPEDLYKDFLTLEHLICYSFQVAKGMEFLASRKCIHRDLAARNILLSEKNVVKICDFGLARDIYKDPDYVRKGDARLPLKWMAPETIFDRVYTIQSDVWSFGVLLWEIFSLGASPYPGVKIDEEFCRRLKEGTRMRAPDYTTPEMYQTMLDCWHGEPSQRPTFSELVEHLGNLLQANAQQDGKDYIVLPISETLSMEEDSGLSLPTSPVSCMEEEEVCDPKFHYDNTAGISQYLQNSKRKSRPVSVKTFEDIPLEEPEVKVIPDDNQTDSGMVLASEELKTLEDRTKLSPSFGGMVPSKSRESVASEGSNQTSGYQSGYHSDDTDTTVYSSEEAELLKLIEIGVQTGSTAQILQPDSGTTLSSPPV
// pIC50 lookup, one value per entry
# pIC50 is unitless: minus log10 of the molar concentration; print number only

Below, 5 compounds whose answers are already recorded.
(Q) Request - read-out pIC50 | tested on Vascular endothelial growth factor receptor 2 (Homo sapiens) | compound COc1ccc(C(=O)Nc2ccc(OCCN3CCCC3)c(F)c2)c(-c2cccc(O)c2)c1O
(A) 8.03

(Q) Request - read-out pIC50 | tested on Vascular endothelial growth factor receptor 2 (Homo sapiens) | compound O=C(Nc1ccc(OCCN2CCCCC2)cc1)c1cccc(-c2cccc(O)c2)c1
(A) 6.67

(Q) Request - read-out pIC50 | tested on Vascular endothelial growth factor receptor 2 (Homo sapiens) | compound CN(C)CCCOc1ccc(NC(=O)c2cccc(-c3cccc(O)c3)c2)cc1F
(A) 7.84

(Q) Request - read-out pIC50 | tested on Vascular endothelial growth factor receptor 2 (Homo sapiens) | compound O=C(Nc1ccc(OCCN2CCCCC2)c(F)c1)c1cccc(-c2cccc(O)c2)c1
(A) 7.35

(Q) Request - read-out pIC50 | tested on Vascular endothelial growth factor receptor 2 (Homo sapiens) | compound COc1ccc(C(=O)Nc2ccc(OCCN3CCCC3)c(Cl)c2)c(-c2cccc(O)c2)c1O
(A) 7.64

Next up:
(Q) Request - read-out pIC50 | tested on Vascular endothelial growth factor receptor 2 (Homo sapiens) | compound O=C(Nc1ccc(OCCN2CCCC2)c(F)c1)c1cccc(-c2cccc(O)c2)c1
(A) 8.31
